# experimental_target: T1, canine NGF tagged at the C-terminus with the Flag tag (canine, UniProt A0A8I3PYI3 122-241)
# T1 construct: mature; Expressed with baculovirus technology; also called feline NGF (processed form identical)
# T1 sequence (A0A8I3PYI3 entry or part of it): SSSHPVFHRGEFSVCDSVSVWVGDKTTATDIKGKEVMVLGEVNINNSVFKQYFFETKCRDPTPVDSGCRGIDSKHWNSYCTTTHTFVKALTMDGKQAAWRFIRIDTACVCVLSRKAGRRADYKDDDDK
# assay_text: SPR off-rate screen, Fab-SASA on BSA chip
readout: Kd (nM)
One number for each entry, in nM.

Please review the following examples before continuing.
>  <binder>
felinized clone 101 Fab-SASA variant N53H (VL) (Fab, V domains shown, not shown: small tags and cut ends) VH: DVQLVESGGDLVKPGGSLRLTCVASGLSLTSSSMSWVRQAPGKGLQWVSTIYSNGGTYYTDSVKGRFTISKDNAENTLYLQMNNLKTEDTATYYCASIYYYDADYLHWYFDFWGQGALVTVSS VL: EIQMTQSPTSLSASVGDRVTITCRASEGISNNLSWYQQTPGKAPKLLIYATSHLHSGVPSRFSGSGSGTDFTLTISSLQPEDFATYYCQQGYKWPLTFGGGTKLEITR

>  <endpoint_value>
1.95

$$$$
>  <binder>
felinized clone 101 Fab-SASA variant S97M (VH) (Fab, V domains shown, not shown: small tags and cut ends) VH: DVQLVESGGDLVKPGGSLRLTCVASGLSLTSSSMSWVRQAPGKGLQWVSTIYSNGGTYYTDSVKGRFTISKDNAENTLYLQMNNLKTEDTATYYCAMIYYYDADYLHWYFDFWGQGALVTVSS VL: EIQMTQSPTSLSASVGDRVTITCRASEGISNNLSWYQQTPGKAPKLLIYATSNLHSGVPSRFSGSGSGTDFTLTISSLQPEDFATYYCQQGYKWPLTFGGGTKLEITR

>  <endpoint_value>
1.75

$$$$
>  <binder>
felinized clone 101 Fab-SASA variant Y99F (VH) (Fab, V domains shown, not shown: small tags and cut ends) VH: DVQLVESGGDLVKPGGSLRLTCVASGLSLTSSSMSWVRQAPGKGLQWVSTIYSNGGTYYTDSVKGRFTISKDNAENTLYLQMNNLKTEDTATYYCASIFYYDADYLHWYFDFWGQGALVTVSS VL: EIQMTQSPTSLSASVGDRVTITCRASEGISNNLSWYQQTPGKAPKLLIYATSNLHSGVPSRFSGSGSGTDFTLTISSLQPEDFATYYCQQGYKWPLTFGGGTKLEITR

>  <endpoint_value>
1.46

$$$$
>  <binder>
felinized clone 101 Fab-SASA variant S97Q (VH) (Fab, V domains shown, not shown: small tags and cut ends, Fab-SASA in conditioned medium) VH: DVQLVESGGDLVKPGGSLRLTCVASGLSLTSSSMSWVRQAPGKGLQWVSTIYSNGGTYYTDSVKGRFTISKDNAENTLYLQMNNLKTEDTATYYCAQIYYYDADYLHWYFDFWGQGALVTVSS VL: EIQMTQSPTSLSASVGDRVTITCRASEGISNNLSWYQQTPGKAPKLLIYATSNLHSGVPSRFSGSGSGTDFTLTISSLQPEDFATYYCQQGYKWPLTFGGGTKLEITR

>  <endpoint_value>
1.36

$$$$
>  <binder>
felinized clone 101 Fab-SASA variant L54H (VL) (Fab, V domains shown, not shown: small tags and cut ends) VH: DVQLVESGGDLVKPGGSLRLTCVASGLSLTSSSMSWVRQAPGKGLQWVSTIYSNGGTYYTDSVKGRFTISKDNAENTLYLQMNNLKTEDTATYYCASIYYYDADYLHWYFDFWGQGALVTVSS VL: EIQMTQSPTSLSASVGDRVTITCRASEGISNNLSWYQQTPGKAPKLLIYATSNHHSGVPSRFSGSGSGTDFTLTISSLQPEDFATYYCQQGYKWPLTFGGGTKLEITR

>  <endpoint_value>
1.65

$$$$
>  <binder>
felinized clone 101 Fab-SASA variant S97H (VH) (Fab, V domains shown, not shown: small tags and cut ends) VH: DVQLVESGGDLVKPGGSLRLTCVASGLSLTSSSMSWVRQAPGKGLQWVSTIYSNGGTYYTDSVKGRFTISKDNAENTLYLQMNNLKTEDTATYYCAHIYYYDADYLHWYFDFWGQGALVTVSS VL: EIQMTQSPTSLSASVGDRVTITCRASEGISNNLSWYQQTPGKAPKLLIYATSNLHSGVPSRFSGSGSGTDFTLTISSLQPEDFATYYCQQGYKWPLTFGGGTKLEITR

>  <endpoint_value>
1.79

$$$$
>  <binder>
felinized clone 101 Fab-SASA variant G55Y (VH) (Fab, V domains shown, not shown: small tags and cut ends) VH: DVQLVESGGDLVKPGGSLRLTCVASGLSLTSSSMSWVRQAPGKGLQWVSTIYSNYGTYYTDSVKGRFTISKDNAENTLYLQMNNLKTEDTATYYCASIYYYDADYLHWYFDFWGQGALVTVSS VL: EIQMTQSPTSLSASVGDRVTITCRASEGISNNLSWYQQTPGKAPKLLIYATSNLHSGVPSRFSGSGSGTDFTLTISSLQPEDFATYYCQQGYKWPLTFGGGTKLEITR

>  <endpoint_value>
1.83

$$$$
>  <binder>
felinized clone 101 Fab-SASA variant S30Q (VL) (Fab, V domains shown, not shown: small tags and cut ends) VH: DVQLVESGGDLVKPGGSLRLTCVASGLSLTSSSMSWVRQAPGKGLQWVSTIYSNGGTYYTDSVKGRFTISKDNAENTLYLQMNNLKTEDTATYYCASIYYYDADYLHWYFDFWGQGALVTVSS VL: EIQMTQSPTSLSASVGDRVTITCRASEGIQNNLSWYQQTPGKAPKLLIYATSNLHSGVPSRFSGSGSGTDFTLTISSLQPEDFATYYCQQGYKWPLTFGGGTKLEITR

>  <endpoint_value>
1.25

$$$$

# batch: return Kd for each of the 2 binders below
1. felinized clone 101 Fab-SASA variant S30A (VL) (Fab, V domains shown, not shown: small tags and cut ends) VH: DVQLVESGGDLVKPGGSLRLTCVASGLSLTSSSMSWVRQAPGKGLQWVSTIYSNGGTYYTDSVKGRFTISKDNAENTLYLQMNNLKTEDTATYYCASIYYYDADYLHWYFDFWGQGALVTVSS VL: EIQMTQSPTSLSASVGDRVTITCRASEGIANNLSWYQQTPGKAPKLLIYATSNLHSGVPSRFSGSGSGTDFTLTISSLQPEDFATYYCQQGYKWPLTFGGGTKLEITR
2. felinized clone 101 Fab-SASA variant D104E (VH) (Fab, V domains shown, not shown: small tags and cut ends) VH: DVQLVESGGDLVKPGGSLRLTCVASGLSLTSSSMSWVRQAPGKGLQWVSTIYSNGGTYYTDSVKGRFTISKDNAENTLYLQMNNLKTEDTATYYCASIYYYDAEYLHWYFDFWGQGALVTVSS VL: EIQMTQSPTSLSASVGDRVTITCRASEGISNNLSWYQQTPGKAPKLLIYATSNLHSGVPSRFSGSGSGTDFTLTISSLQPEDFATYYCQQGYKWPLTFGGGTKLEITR

Reply text:
1: 1.05; 2: 1.8
